# Organism: Rattus norvegicus
# PROTOCOL_DETAILS: DrugMatrix - Regimen: Daily Repeat
# Format: toxicity, organism-based, Sprague-Dawley
# Set-up: regimen Daily Repeat, gender Male, age 6-8 weeks
# CONDITION_LABEL: in vivo, po, 0 mg/kg, 120 h, tissue Plasma, route oral GAVAGE, dose level Control, time 5 day, vehicle .5 % CMC
Listed here: items and their measured TOTAL PROTEIN.
A bare number is not enough; add the unit after it.

Below, 5 compounds whose answers are already recorded.
- COMPOUND: "CC(C)(C#N)c1cc(Cn2cncn2)cc(C(C)(C)C#N)c1 [ANASTROZOLE]"
  TOTAL PROTEIN: "6.03 G/DL"
- COMPOUND: "CCN1C[C@]2(COC)[C@H](O)C[C@H](OC)[C@@]34[C@@H]5C[C@@]6(O)[C@H](OC(=O)c7ccccc7)[C@@H]5[C@@](OC(C)=O)([C@@H]([C@H](OC)[C@H]23)[C@@H]14)[C@@H](O)[C@@H]6OC [ACONITINE]"
  TOTAL PROTEIN: "6.72 G/DL"
- COMPOUND: "CC(C)Cc1ccc([C@H](C)C(=O)O)cc1 [DEXIBUPROFEN]"
  TOTAL PROTEIN: "6.77 G/DL"
- COMPOUND: "CN(C)CCOC(c1ccccc1)c1ccccc1.Cn1c(=O)c2[nH]c(Cl)nc2n(C)c1=O [DIMENHYDRINATE]"
  TOTAL PROTEIN: "6.02 G/DL"
- COMPOUND: "CCOc1cc(N)c(Cl)cc1C(=O)NCC1CN(Cc2ccc(F)cc2)CCO1 (stereo not drawn) [MOSAPRIDE]"
  TOTAL PROTEIN: "6.08 G/DL"

Q. Identify measured TOTAL PROTEIN corresponding to O=C(O)CCc1nc(-c2ccccc2)c(-c2ccccc2)o1 [OXAPROZIN]
A. 6.1 G/DL

Q. Return the recorded TOTAL PROTEIN value; entry: Cc1cc2c(s1)Nc1ccccc1N=C2N1CCN(C)CC1 [OLANZAPINE]
A. 6.1 G/DL

Q. Supply measured TOTAL PROTEIN of CN(C)CCC=C1c2ccccc2COc2ccccc21 [DOXEPIN] in your reply.
A. 6.25 G/DL
